observed-property: melting point

INSERT INTO results (compound, observed_property, result) VALUES
  ('Cc1ccc(C(=S)c2ccc(Cl)cc2)cc1', 'melting point', '134 °C'),
  ('Cc1c(NC(=O)CC(C)(C)C)cc2c(c1C)OC(C)(C)C2Cc1ccc(C(C)C)cc1 (centres undefined)', 'melting point', '130 to 132 °C'),
  ('CCCC(=O)Nc1n[nH]c2c(N)cc(C)nc12', 'melting point', '170 to 171 °C'),
  ('COc1ccc(-c2ccc(C(=O)Nc3cc4ncc(CN5CCCC5)cc4cc3F)cc2)cc1', 'melting point', '184 to 186 °C'),
  ('COc1cn(-c2ccc(N3CCN(C(C)(C)C)C3=O)cc2F)nc(-c2ccnn2-c2ccccc2)c1=O', 'melting point', '238 to 239 °C'),
  ('COc1ccc(Cn2c(S(=O)(=O)Cc3ccc(C)cn3)nc3cscc32)cc1', 'melting point', '148 to 150 °C'),
  ('Cc1ccc(Cn2nnc(C(N)=O)c2N)cc1C(Cl)=C(Cl)Cl', 'melting point', '196 to 197 °C'),
  ('CC1CC(=O)NN=C1c1ccc(NC(=O)OC2CCC2)cc1 (centres undefined)', 'melting point', '245 to 246 °C'),
  ('CCCCc1ncc(CC(Cc2cccs2)C(=O)O)n1Cc1ccc(C(=O)O)cc1 (centres undefined)', 'melting point', '175 °C');

###

Examples of compounds with documented melting point follow.
observed-property: melting point

INSERT INTO measurements (compound, result) VALUES
  ('O=c1ccc(Cl)cn1[C@@H]1c2ccccc2OCC[C@H]1O (relative stereo)', '176 to 178 °C'),
  ('Fc1ccc(-c2cc(C(F)(F)F)n3ncc(-c4ccncc4)c3n2)cc1Cl', '265 °C'),
  ('COCN(C(=O)CCl)c1c([N+](=O)[O-])cccc1[N+](=O)[O-]', '106 to 108 °C'),
  ('CC(C)N(C[C@H](O)COc1ccc(OCc2ccccc2)cc1)S(C)(=O)=O', '96 to 97 °C'),
  ('COc1ccc(CSc2ccc(OCC(=O)O)c3c2CCC3)cc1OCc1ccc(C(F)(F)F)cc1', '150 to 151 °C'),
  ('Cc1c(Br)cc(S(C)(=O)=O)c(C)c1Cl', '124 to 126 °C'),
  ('CCCn1ccc2c(NCCc3ccc(O)cc3)cccc2c1=O', '170 to 171 °C'),
  ('O=C(O)c1ccc(CNC(=O)[C@@H]2Cc3ccccc3N2S(=O)(=O)c2ccc(I)cc2)cc1', '110 to 120 °C'),
  ('CN(CCOc1ccc(CCO)cc1)c1nc2ccccc2o1', '95 to 97 °C'),
  ('CN(C)C(=S)Oc1ccc(CCCCN)cc1', '89 to 93 °C'),
  ('COc1cc(OCc2ccccn2)c(C=O)cc1-c1cccs1', '93 to 94 °C'),
  ('CSc1cc(C)nc(SC)c1[N+](=O)[O-]', '172 to 176 °C'),
  ('CCOC(=O)c1c(C)nc(-c2ccccc2)nc1-c1cccc(C(F)(F)F)c1', '59 to 60 °C'),
  ('Cc1nc(N)sc1-c1cccnc1', '190 to 191 °C'),
  ('CN(c1ccnc(C(N)=O)c1)c1ccccc1C(=O)Nc1cc2ccccc2cn1', '200 °C'),
  ('c1ccc(-c2nc3cc4oc(-c5ccccc5)nc4cc3o2)cc1', '319 to 323 °C'),
  ('N#CC1NC(CO)C(O)C(O)C1O (configuration not stated)', '143 °C'),
  ('CCn1c2ccccc2c2cc(C#N)ccc21', '183 to 185 °C'),
  ('CCn1cnc2c(=O)[nH]c(N)nc21', '> 300 °C'),
  ('Cc1ccc(-c2nc3ccc(C(C)(C)CN)cc3[nH]2)cc1', '45 to 48 °C'),
  ('CC12CCC3c4ccc(C(=O)O)cc4CCC3C1CCC2C(=O)c1cccc2ccccc12 (configuration not stated)', '228 °C'),
  ('O=C(O)c1cc(Cl)n2cnnc2c1', '249 to 251 °C');

###

Examples of compounds with documented melting point follow.
observed-property: melting point

INSERT INTO results (smiles_structure, observed_property, result) VALUES
  ('C/C=C\Cn1c(C(=O)c2cc(C)cc(C)c2)c(CC)c(=O)[nH]c1=O', 'melting point', '199 to 200 °C'),
  ('C(=Cc1ccc(-c2cc3cc(-c4ccccc4)ccc3o2)cc1)c1ccc(-c2ccccc2)cc1', 'melting point', '356 to 358 °C'),
  ('N#Cc1cccc(C(=O)Cn2cncn2)c1', 'melting point', '172 to 173 °C'),
  ('Cc1cn(-c2ncccn2)cc1C(=O)NC(=N)N', 'melting point', '208 °C'),
  ('Cc1nnsc1C(=O)NS(C)(=O)=O', 'melting point', '187 °C'),
  ('COc1cc(OCCCN(C)C)ccc1C(=O)NN', 'melting point', '47 to 52 °C'),
  ('Cn1c(-c2ccc(-c3ccco3)cc2)cnc1[C@H](Cc1ccccn1)N(C=O)OC(C)(C)C', 'melting point', '131 to 135 °C'),
  ('CCOC(=O)c1cn(C2CC2)c2c(CSCC)c(N3CCOCC3)c(F)cc2c1=O', 'melting point', '165 to 167 °C'),
  ('Cc1[nH]c(=O)n(-c2cc(C(=O)OC(C)C)c(Cl)cc2F)c(=O)c1SC#N', 'melting point', '159 to 161 °C'),
  ('O=C1NCCc2c(-c3ccc(C(F)(F)F)cc3)[nH]c3cccc1c23', 'melting point', '208 to 209 °C');

###

melting point overview
observed-property: melting point

INSERT INTO assay_data (smiles_structure, result) VALUES
  ('CC(C)OC(=O)C(C(N)=O)=C1SCS1', '128 to 129 °C'),
  ('CN1CCN(Cc2ccc(-c3cc4c(Nc5ccc6[nH]ccc6c5)c(C#N)cnc4s3)nc2)CC1', '> 245 °C'),
  ('Nc1cc(Cc2n[nH]c(=O)c3ccccc23)ccc1Cl', '227 to 228 °C'),
  ('CS(=O)(=O)c1ccc(-c2cc(C(F)(F)F)nn2-c2ccc(C#N)cc2)cc1F', '152 to 153 °C'),
  ('O=C(Nc1ccc(-c2ccccc2)cc1C(=O)O)OCc1cc2cc(-c3ccccc3)ccc2o1', '226 °C');

###

observed-property: melting point

INSERT INTO assay_data (molecule, result) VALUES
  ('NCC(=O)N(Nc1nncc(-c2ccccc2)n1)C(=O)OCc1ccccc1', '166 to 167 °C'),
  ('CC(C)(C)OC(=O)N1CCN(CC(=O)Nc2ccc(CC#N)cc2)CC1', '137 to 138 °C'),
  ('Cc1nc2cc(OC3SCC(O)C(O)C3O)ccc2s1 (stereo not given)', '210 to 211 °C'),
  ('CC1OC(OC2C=C(Br)C(=O)C(C)O2)C=C(Br)C1=O (stereo not given)', '125 °C'),
  ('O=C1Nc2cccc(-c3cccc(NS(=O)(=O)c4cc(S(=O)(=O)c5ccccc5)cs4)c3)c2/C1=C/c1ccc[nH]1', '132 to 134 °C'),
  ('CC(=O)N1CCN(c2cc3nc(C(C)(C)C)sc3cc2[N+](=O)[O-])CC1', '166 to 168 °C'),
  ('COc1cnc(CSc2nc3cc4c(cc3[nH]2)OC(F)(F)O4)c(C)c1OC', '160 to 161 °C'),
  ('COc1ccc(C#N)c(F)c1OC', '64 to 65 °C'),
  ('Cn1c(-c2cc(C(C)(C)C)c(O)c(C(C)(C)C)c2)cnc1S', '288 to 289 °C'),
  ('O=C(CBr)c1cccc2nnsc12', '155 to 157 °C');

###

Attribute: melting point
observed-property: melting point

INSERT INTO results (molecule, observed_property, result) VALUES
  ('COC(=O)C(C)(C)OCC#Cc1cc(C(F)(F)F)ccc1NS(=O)(=O)c1ccc2c(c1)OCCN2C', 'melting point', '98 to 100 °C'),
  ('CCOC(=O)N1CCN(C(=O)c2sc(NC(C)=O)nc2CCc2ccc(NC(=N)N)cc2)CC1', 'melting point', '180 to 182 °C'),
  ('O=C(c1ccccc1F)c1cccc2c1N(C(=O)CBr)CC2', 'melting point', '136 °C'),
  ('Cc1c(O)nc2ccccc2c1C(=O)O', 'melting point', '> 300 °C'),
  ('CCOC(=O)C1=C(C(C)C)Nc2n[nH]cc2C1c1ccccc1OC (stereo not given)', 'melting point', '179 to 180 °C'),
  ('CCCNC(=O)c1ccc2c(c1)N(C(C)COS(C)(=O)=O)c1ccccc1S2 (racemic)', 'melting point', '138 °C'),
  ('CN(C)S(=O)(=O)c1cc(-c2csc(=Nc3ccc4c(c3)OCO4)n2C)ccc1Cl', 'melting point', '171 to 173 °C'),
  ('N#Cc1cc(I)ccc1N', 'melting point', '85 to 86 °C'),
  ('O=C(O)c1c(Cl)c([N+](=O)[O-])cc([N+](=O)[O-])c1Nc1ccc(OCc2ccccc2)cc1', 'melting point', '208 to 211 °C'),
  ('CNC1CCN(c2c(F)cc3c(=O)c(C(=O)O)cn(C4CC4)c3c2OC)CC1(C)C (stereo not given)', 'melting point', '246 to 248 °C'),
  ('CCN1c2cc(N)ccc2N(C)C(=O)c2cccnc21', 'melting point', '193 to 195 °C'),
  ('NC(=O)c1ccccc1-c1n[nH]c(-c2ccccc2)n1', 'melting point', '222 to 225 °C'),
  ('COC(=O)Cc1ccc2c(c1)C(=O)Cc1ccccc1C2', 'melting point', '111 to 112 °C'),
  ('C#CCSc1nc[nH]n1', 'melting point', '102 to 104 °C'),
  ('C=Cc1cc(-c2ccc(S(C)(=O)=O)cc2)n(CC2CCCCC2)n1', 'melting point', '136 to 138 °C'),
  ('O=c1cc(-c2ccncc2)nc2n1CCOCC2', 'melting point', '156 to 159 °C'),
  ('OCCCCCCn1nc(-c2ccccc2)c(-c2ccccc2)c1-c1ccccc1', 'melting point', '76 to 78 °C'),
  ('C#Cc1cccc(Nc2ncnc3cc4c(cc23)OCO4)c1', 'melting point', '> 350 °C'),
  ('COc1cc(OC)nc(NC(=O)NS(=O)(=O)c2c([N+](=O)[O-])ccc3c2CCC3)n1', 'melting point', '162 to 172 °C'),
  ('CCOC(=O)c1ncn2c1CN=C(c1ccccc1F)c1cc(Br)ccc1-2', 'melting point', '200 to 202 °C'),
  ('CC(NC(=O)OC(C)(C)C)C(=O)Nc1cc(OCC(F)(F)F)ccc1-c1cccnc1 (stereo not given)', 'melting point', '149 to 152 °C'),
  ('O=C(OCCO)c1ncn2c1[C@@H]1CCCN1C(=O)c1sccc1-2', 'melting point', '182 to 184 °C'),
  ('CC(=NO)C(=O)c1ccc(OCc2cccc(C(F)(F)F)c2)cc1', 'melting point', '137 to 138 °C'),
  ('CCOc1ccc(-c2nc(-c3cc(C(=O)O)ccn3)cs2)cc1OCC', 'melting point', '236 to 237 °C'),
  ('CCOC(=O)c1c(-c2cccc(C)c2)csc1N1C(=O)c2ccccc2C1=O', 'melting point', '175 to 176 °C'),
  ('CCCOC(=O)Nc1cccc(NC(=O)C=C(C)OC)c1', 'melting point', '115 °C'),
  ('Cc1ccccc1-c1ccc(C(=O)N2Cc3ccc(C(=O)NCc4ccc(Cl)cc4)n3Cc3ccccc32)cc1C', 'melting point', '196 to 197 °C'),
  ('CC(=O)SCSCc1cn(C(c2ccccc2)(c2ccccc2)c2ccccc2)nn1', 'melting point', '106 °C'),
  ('CC1CN(C)CC(NC(=O)c2n[nH]c3ccccc23)CN1Cc1ccccc1 (stereo not given)', 'melting point', '164 to 165 °C'),
  ('COc1ccc(-c2nc(C)c(C(=O)OCC[Si](C)(C)C)s2)cc1', 'melting point', '80 to 82 °C'),
  ('CC1CCCC(C)C1=CC1C(C(=O)O)C1(C)C (stereo not given)', 'melting point', '96 °C'),
  ('CN1CCN(C)C1=Nc1ccccc1-c1ccccc1', 'melting point', '90 to 91 °C'),
  ('COCC(=O)NNC1=Nc2sc(Cl)cc2C(c2ccccc2[N+](=O)[O-])=NC1', 'melting point', '198 to 200 °C'),
  ('CCOc1ccc(-n2nc(C(F)(F)F)nc2-c2ccc(S(C)(=O)=O)cc2)cc1', 'melting point', '112 °C'),
  ('N#Cc1cccc(OC2SCC(O)C(O)C2O)c1 (stereo not given)', 'melting point', '130 to 135 °C'),
  ('COc1ccc(Cl)cc1C(=O)Nc1ccc(C(F)(F)F)cc1', 'melting point', '132 °C'),
  ('O=[N+]([O-])c1ccc2c(c1)N=Cc1ccccc1O2', 'melting point', '179 to 181 °C'),
  ('Fc1ccccc1CN[C@H]1CCCN[C@H]1c1ccccc1 (relative stereo)', 'melting point', '> 260 °C'),
  ('O=C1c2ccccc2-c2[nH]c(=O)c(=O)[nH]c21', 'melting point', '243 to 253 °C'),
  ('CCCCCS(=O)(=O)NC(=O)/C=C/c1ccc(OCCOC)cc1Oc1ccc(C(F)(F)F)cc1Cl', 'melting point', '134 to 135 °C');
